These entries and their values trace back to the supplement of paper PMC6555819.

System: PPARa:RXRa (NR concentration 270 nM, RXRa partner concentration 90 nM)
Experiment: PBM binding z-score (relative to random genomic background probes); higher = stronger binding; sequences stand for … in GC…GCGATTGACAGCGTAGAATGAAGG
valueKind: PBM binding z-score

>>> df
                             residues            valuekind  measurement
0  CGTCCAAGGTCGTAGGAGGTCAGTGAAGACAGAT  PBM binding z-score         4.12
1  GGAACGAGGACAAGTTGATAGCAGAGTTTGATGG  PBM binding z-score       0.0298
2  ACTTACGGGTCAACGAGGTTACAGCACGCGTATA  PBM binding z-score            6
3  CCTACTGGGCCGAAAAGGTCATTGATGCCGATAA  PBM binding z-score         4.47
4  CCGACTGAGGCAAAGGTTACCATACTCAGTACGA  PBM binding z-score         3.69
5  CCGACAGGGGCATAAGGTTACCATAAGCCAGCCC  PBM binding z-score          1.9

---

Tested on: LXRa:RXRa (NR concentration 270 nM, RXRa partner concentration 90 nM)
Assay: PBM binding z-score (relative to random genomic background probes); higher = stronger binding; sequences stand for … in GC…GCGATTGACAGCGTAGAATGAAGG
valueKind: PBM binding z-score

In [3]: df
Out[3]:
                              residues  measurement
 0  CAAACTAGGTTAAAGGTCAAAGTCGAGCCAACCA          6.3
 1  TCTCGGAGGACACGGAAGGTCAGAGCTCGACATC          1.8
 2  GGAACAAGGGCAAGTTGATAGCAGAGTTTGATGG        0.417
 3  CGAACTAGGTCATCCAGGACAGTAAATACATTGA         2.79
 4  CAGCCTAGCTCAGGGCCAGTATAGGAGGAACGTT        -1.14
 5  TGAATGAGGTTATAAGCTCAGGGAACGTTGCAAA        0.975
 6  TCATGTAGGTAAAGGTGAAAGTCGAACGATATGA         1.11
 7  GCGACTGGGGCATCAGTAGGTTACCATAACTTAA       -0.299
 8  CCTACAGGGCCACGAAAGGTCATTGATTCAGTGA         5.83
 9  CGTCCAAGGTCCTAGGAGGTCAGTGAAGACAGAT         1.66
10  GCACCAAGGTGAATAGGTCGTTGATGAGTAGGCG        0.592
11  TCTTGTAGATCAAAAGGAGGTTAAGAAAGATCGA         1.83

---

Let's look at some sequences and their measured PBM binding z-score.
System: LXRa homodimer (NR concentration 270 nM)
Assay: PBM binding z-score (relative to random genomic background probes); higher = stronger binding; sequences stand for … in GC…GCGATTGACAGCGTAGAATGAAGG
valueKind: PBM binding z-score

>>> df
                              residues                                systemname  measurement
 0  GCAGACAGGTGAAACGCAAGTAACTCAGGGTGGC  LXRa homodimer (NR concentration 270 nM)       -0.469
 1  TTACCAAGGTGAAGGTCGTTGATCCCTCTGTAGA  LXRa homodimer (NR concentration 270 nM)       -0.222
 2  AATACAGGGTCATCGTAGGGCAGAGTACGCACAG  LXRa homodimer (NR concentration 270 nM)         2.95
 3  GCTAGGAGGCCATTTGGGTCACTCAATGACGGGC  LXRa homodimer (NR concentration 270 nM)       -0.495
 4  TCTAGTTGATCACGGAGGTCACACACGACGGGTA  LXRa homodimer (NR concentration 270 nM)          1.8
 5  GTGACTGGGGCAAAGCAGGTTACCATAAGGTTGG  LXRa homodimer (NR concentration 270 nM)         0.27
 6  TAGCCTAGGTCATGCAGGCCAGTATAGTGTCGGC  LXRa homodimer (NR concentration 270 nM)        0.151
 7  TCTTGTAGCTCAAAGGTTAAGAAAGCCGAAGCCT  LXRa homodimer (NR concentration 270 nM)       -0.349
 8  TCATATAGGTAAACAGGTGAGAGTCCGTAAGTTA  LXRa homodimer (NR concentration 270 nM)        0.145
 9  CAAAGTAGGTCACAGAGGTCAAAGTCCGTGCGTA  LXRa homodimer (NR concentration 270 nM)          7.7
10  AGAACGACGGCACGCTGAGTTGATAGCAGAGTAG  LXRa homodimer (NR concentration 270 nM)       -0.906
11  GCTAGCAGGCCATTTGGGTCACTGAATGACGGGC  LXRa homodimer (NR concentration 270 nM)       -0.885
